System: Rattus norvegicus
Assay notes: Antihyperlipidemic activity in Charles-Foster rat assessed as reversal of triton-induced increase in plasma triglyceride level at 100 mg/kg, po after 18 hrs relative to triton-treated control
Assay type: functional
Activity values by entry
Numeric only. Scale: %

Molecule: CCCc1cc(C(c2c[nH]c3ccc(O)cc23)c2c[nH]c3ccc(O)cc23)cc2cc(C(=O)c3ccc(OC)cc3)oc12
Quantitative result: -20

Molecule: Cc1ccc(C)c(OCCCC(C)(C)C(=O)O)c1 [GEMFIBROZIL]
Quantitative result: -34

Molecule: COc1ccc(C(=O)c2cc3cc(C(c4c[nH]c5ccc([N+](=O)[O-])cc45)c4c[nH]c5ccc([N+](=O)[O-])cc45)cc(C(C)C)c3o2)cc1
Quantitative result: -10

From here, focus on the item given below.
Enquiry: Rattus norvegicus / Activity / COc1ccc(C(=O)c2cc3cc(C(c4c[nH]c5ccc(OC)cc45)c4c[nH]c5ccc(OC)cc45)cc(C(C)(C)C)c3o2)cc1 : value?
Return: -23

----------
Assay notes: Antioxidant activity assessed as inhibition of microsomal lipid peroxidation at 200 ug/mL by spectrophotometric analysis relative to control
Format: functional
Measured metric: inhibition (%)
Numeric only. Scale: %

// known answers, use as guide
Compound string: OC[C@@H](O)[C@@H](O)[C@H](O)[C@H](O)CO
Readout units: %
inhibition: 52
--
Compound string: Cc1c(C)c2c(c(C)c1O)CC[C@@](C)(CCC[C@H](C)CCC[C@H](C)CCCC(C)C)O2
Readout units: %
inhibition: 52
--
Compound string: COc1ccc(C(=O)c2cc3cc(C(c4c[nH]c5ccc(OC)cc45)c4c[nH]c5ccc(OC)cc45)cc(C)c3o2)cc1
Readout units: %
inhibition: 31

Enquiry: Recorded inhibition for CCc1cc(C(c2c[nH]c3ccc(OC)cc23)c2c[nH]c3ccc(OC)cc23)cc2cc(C(=O)c3ccc(OC)cc3)oc12 , please?
Return: 32

----------
System: Rattus norvegicus
Assay notes: Antihyperlipidemic activity in Charles-Foster rat assessed as reversal of triton-induced increase in plasma total cholesterol level at 50 mg/kg, po after 18 hrs relative to triton-treated control
Format: functional
Measured metric: Activity (%)
Numeric only. Scale: %

// known answers, use as guide
Compound string: COc1ccc(C(=O)c2cc3cc(C(c4c[nH]c5ccc(OC)cc45)c4c[nH]c5ccc(OC)cc45)cc(C(C)(C)C)c3o2)cc1
Quantitative result: -20
--
Compound string: COc1ccc(C(=O)c2cc3cc(C(c4c[nH]c5ccc(OC)cc45)c4c[nH]c5ccc(OC)cc45)cc(C)c3o2)cc1
Quantitative result: -15

Enquiry: Recorded Activity for CCCc1cc(C(c2c[nH]c3ccc(OC)cc23)c2c[nH]c3ccc(OC)cc23)cc2cc(C(=O)c3ccc(OC)cc3)oc12 , please?
Return: -17

Enquiry: For CCc1cc(C(c2c[nH]c3ccc(OC)cc23)c2c[nH]c3ccc(OC)cc23)cc2cc(C(=O)c3ccc(OC)cc3)oc12 then?
Return: -22

----------
Test system: Rattus norvegicus
Assay notes: Antihyperlipidemic activity in Charles-Foster rat assessed as reversal of triton-induced increase in plasma total cholesterol level at 100 mg/kg, po after 18 hrs relative to triton-treated control
Assay type: functional
Activity values by entry
Numeric only. Scale: %

Compound string: COc1ccc(C(=O)c2cc3cc(C(c4c[nH]c5ccc(OC)cc45)c4c[nH]c5ccc(OC)cc45)cc(Cl)c3o2)cc1
Readout units: %
Activity: -21
//
Compound string: COc1ccc(C(=O)c2cc3cc(C(c4c[nH]c5ccc(OC)cc45)c4c[nH]c5ccc(OC)cc45)cc(C(C)(C)C)c3o2)cc1
Readout units: %
Activity: -24
//
Compound string: COc1ccc(C(=O)c2cc3cc(C(c4c[nH]c5ccc([N+](=O)[O-])cc45)c4c[nH]c5ccc([N+](=O)[O-])cc45)cc(C(C)C)c3o2)cc1
Readout units: %
Activity: -9

Enquiry: Recorded Activity for CC(C)c1cc(C(c2c[nH]c3ccccc23)c2c[nH]c3ccccc23)cc2cc(C(=O)c3ccc(Cl)cc3)oc12 , please?
Return: -12

Enquiry: For CCc1cc(C(c2c[nH]c3ccccc23)c2c[nH]c3ccccc23)cc2cc(C(=O)c3ccc(OC)cc3)oc12 then?
Return: -8

Enquiry: For Cc1cc(C(c2c[nH]c3ccccc23)c2c[nH]c3ccccc23)cc2cc(C(=O)c3ccc(C#N)cc3)oc12 then?
Return: -7

----------
Test system: Rattus norvegicus
Assay notes: Antihyperlipidemic activity in Charles-Foster rat assessed as reversal of triton-induced increase in plasma total cholesterol level at 100 mg/kg, po after 18 hrs relative to triton-treated control
Assay type: functional
Measured metric: Activity (%)
Numeric only. Scale: %

// known answers, use as guide
Compound string: CCCc1cc(C(c2c[nH]c3ccc(OC)cc23)c2c[nH]c3ccc(OC)cc23)cc2cc(C(=O)c3ccc(OC)cc3)oc12
Assay system: Rattus norvegicus
Readout units: %
Quantitative result: -24
//
Compound string: COc1ccc(C(=O)c2cc3cc(C(c4c[nH]c5ccccc45)c4c[nH]c5ccccc45)cc(C)c3o2)cc1
Assay system: Rattus norvegicus
Readout units: %
Quantitative result: -12
//
Compound string: CCCc1cc(C(c2c[nH]c3ccc(O)cc23)c2c[nH]c3ccc(O)cc23)cc2cc(C(=O)c3ccc(OC)cc3)oc12
Assay system: Rattus norvegicus
Readout units: %
Quantitative result: -22
//
Compound string: CCc1cc(C(c2c[nH]c3ccc([N+](=O)[O-])cc23)c2c[nH]c3ccc([N+](=O)[O-])cc23)cc2cc(C(=O)c3ccc(OC)cc3)oc12
Assay system: Rattus norvegicus
Readout units: %
Quantitative result: -4

Enquiry: Recorded Activity for CC(C)(C)c1cc(C(c2c[nH]c3ccccc23)c2c[nH]c3ccccc23)cc2cc(C(=O)c3ccc(Cl)cc3)oc12 , please?
Return: -10

Enquiry: For CCc1cc(C(c2c[nH]c3ccc(OC)cc23)c2c[nH]c3ccc(OC)cc23)cc2cc(C(=O)c3ccc(OC)cc3)oc12 then?
Return: -28

Enquiry: For COc1ccc(C(=O)c2cc3cc(C(c4c[nH]c5ccccc45)c4c[nH]c5ccccc45)cc(C(C)C)c3o2)cc1 then?
Return: -17

Enquiry: For Cc1ccc(C)c(OCCCC(C)(C)C(=O)O)c1 then?
Return: -34

----------
Test system: Rattus norvegicus
Assay notes: Antihyperlipidemic activity in Charles-Foster rat assessed as reversal of triton-induced increase in plasma total cholesterol level at 100 mg/kg, po after 18 hrs relative to triton-treated control
Type: functional
Measured metric: Activity (%)
Numeric only. Scale: %

Compound string: COc1ccc(C(=O)c2cc3cc(C(c4c[nH]c5ccc(OC)cc45)c4c[nH]c5ccc(OC)cc45)cc(C)c3o2)cc1
Activity [%]: -23

Compound string: COc1ccc(C(=O)c2cc3cc(C(c4c[nH]c5ccccc45)c4c[nH]c5ccccc45)cc(C(C)(C)C)c3o2)cc1
Activity [%]: -7

Compound string: CC(C)c1cc(C(c2c[nH]c3ccccc23)c2c[nH]c3ccccc23)cc2cc(C(=O)c3ccc(C#N)cc3)oc12
Activity [%]: -9

Enquiry: Recorded Activity for Cc1ccc(C(=O)c2cc3cc(C(c4c[nH]c5ccccc45)c4c[nH]c5ccccc45)cc(C)c3o2)cc1 , please?
Return: -8

Enquiry: For CCc1cc(C(c2c[nH]c3ccccc23)c2c[nH]c3ccccc23)cc2cc(C(=O)c3ccc(Cl)cc3)oc12 then?
Return: -20

Enquiry: For Cc1cc(C(c2c[nH]c3ccccc23)c2c[nH]c3ccccc23)cc2cc(C(=O)c3ccc(Cl)cc3)oc12 then?
Return: -11
